System: Escherichia coli
Procedure Summary: Antimicrobial activity against Escherichia coli CIP 53126 after 18 to 24 hrs by broth microdilution method
Assay type: functional
Endpoint Label: MBC

| Structure As Smiles | Endpoint Label | Result |
| --- | --- | --- |
| O=C(O)c1cn(C2CC2)c2cc(N3CCN(C(=O)CO)CC3)c(F)cc2c1=O | MBC | 1.9 µM |

Memo: `CCCCCCCCCCCCCCNC(=O)c1cn2c3c(c(N4CCN(C)CC4)c(F)cc3c1=O)OC[C@@H]2C` , reported MBC: 250 µM

Reported MBC of `O=C(CCCCCCCCCCCCCC(=O)OCN1CCN(c2cc3c(cc2F)c(=O)c(C(=O)O)cn3C2CC2)CC1)OCN1CCN(c2cc3c(cc2F)c(=O)c(C(=O)O)cn3C2CC2)CC1` : 62.5 µM

Kindly note the recorded MBC for `CCCCCCCCCCCCOC(=O)N1CCN(c2cc3c(cc2F)c(=O)c(C(=O)O)cn3C2CC2)CC1` , which is 250 µM

Looking up `CCCCCCCCCCCCCC(=O)OCC(=O)N1CCN(c2cc3c(cc2F)c(=O)c(C(=O)O)cn3C2CC2)CC1` , I see its MBC listed as 500 µM

The reported MBC of the molecule `O=C(O)c1cn(C2CC2)c2cc(N3CCNCC3)c(F)cc2c1=O` was ≤ 0.97 µM

What the record says about `CCCCCCCC(=O)OCC(=O)N1CCN(c2cc3c(cc2F)c(=O)c(C(=O)O)cn3C2CC2)CC1` : MBC is 62.5 µM

get_value(item= `O=C(O)c1cn(C2CC2)c2cc(N3CCN(C(=O)COCc4ccccc4)CC3)c(F)cc2c1=O` , readout=MBC) returns 1.9 µM

###

Test system: Staphylococcus aureus
Procedure Summary: Antimicrobial activity against Staphylococcus aureus CIP 4.83 after 18 to 24 hrs by broth microdilution method
Assay type: functional
Endpoint Label: MBC (µM)
Your answer is read as µM, so omit the unit and give the number.

| Structure As Smiles | Endpoint Label | Numeric Result |
| --- | --- | --- |
| CCCCCCCCCCCCCC(=O)OCC(=O)N1CCN(c2cc3c(cc2F)c(=O)c(C(=O)O)cn3C2CC2)CC1 | MBC | 7.8 |

So, `CCCCCCCCCCCC(=O)N1CCN(c2cc3c(cc2F)c(=O)c(C(=O)O)cn3C2CC2)CC1` ? Its MBC was 7.8

The recorded MBC for entry `O=C(O)c1cn(C2CC2)c2cc(N3CCN(C(=O)CCCCCCCCC(=O)N4CCN(c5cc6c(cc5F)c(=O)c(C(=O)O)cn6C5CC5)CC4)CC3)c(F)cc2c1=O` equals 250

Measured MBC, `CCCCCCCCCCCCCC(=O)OCOC(=O)c1cn2c3c(c(N4CCN(C)CC4)c(F)cc3c1=O)OC[C@@H]2C` : 3.9

###

Tested on: Staphylococcus aureus
Procedure Summary: Antimicrobial activity against Staphylococcus aureus CIP 4.83 after 18 to 24 hrs by broth microdilution method
Format: functional
Endpoint Label: MBC

| Structure As Smiles | MBC |
| --- | --- |
| CCCCCCCCNC(=O)c1cn2c3c(c(N4CCN(C)CC4)c(F)cc3c1=O)OC[C@@H]2C | 31.2 µM |
| O=C(O)c1cn(C2CC2)c2cc(N3CCN(C(=O)CCl)CC3)c(F)cc2c1=O | ≤ 0.97 µM |

For `CCCCC(=O)N1CCN(c2cc3c(cc2F)c(=O)c(C(=O)O)cn3C2CC2)CC1` on Staphylococcus aureus, measured MBC was ≤ 0.48 µM

# MBC measured on Staphylococcus aureus for item `O=C(O)c1cn(C2CC2)c2cc(N3CCN(C(=O)CCCCCCCCCCCCCC(=O)N4CCN(c5cc6c(cc5F)c(=O)c(C(=O)O)cn6C5CC5)CC4)CC3)c(F)cc2c1=O` = 1.9 µM

Here `CCCCCCCCCOC(=O)N1CCN(c2cc3c(cc2F)c(=O)c(C(=O)O)cn3C2CC2)CC1` was tested on Staphylococcus aureus, and its MBC came to 125 µM

# value of MBC, Staphylococcus aureus, item `CCOC(=O)N1CCN(c2cc3c(cc2F)c(=O)c(C(=O)O)cn3C2CC2)CC1` = ≤ 0.97 µM

Record for `O=C(CCCCCCCCCCCCCC(=O)OCN1CCN(c2cc3c(cc2F)c(=O)c(C(=O)O)cn3C2CC2)CC1)OCN1CCN(c2cc3c(cc2F)c(=O)c(C(=O)O)cn3C2CC2)CC1` under target or system Staphylococcus aureus: MBC reported as ≤ 0.48 µM

Param item: `CC(=O)OCC(=O)N1CCN(c2cc3c(cc2F)c(=O)c(C(=O)O)cn3C2CC2)CC1` ; param system: Staphylococcus aureus; output MBC: ≤ 0.97 µM

###

Listed next: entries and their corresponding pIC50.
Test system: A549
Procedure Summary: Antiproliferative activity against human A549 cells after 120 hrs by MTT asasy
Type: functional, cell-based
Recorded Conditions: A549, 120 h
Formally, pIC50 is defined as -log10 of the concentration c, with c in mol/L.

| Compound | pIC50 |
| --- | --- |
| C[C@H]1COc2c(N3CCN(C)CC3)c(F)cc3c(=O)c(C(=O)O)cn1c23 [LEVOFLOXACIN] | 4.17 |

Now for the compound whose pIC50 we want.
Reported pIC50 (A549) for entry `C[C@H]1COc2c(N3CCN(C)CC3)c(F)cc3c(=O)c(C(=O)NCCCCCCCCCNC(=O)c4cn5c6c(c(N7CCN(C)CC7)c(F)cc6c4=O)OC[C@@H]5C)cn1c23` is 6.70

###

Entries and their MBC
Tested on: Enterococcus hirae
Procedure Summary: Antimicrobial activity against Enterococcus hirae CIP 5855 after 18 to 24 hrs by broth microdilution method
Format: functional
Kindly provide the numeric value in µM only, without the unit symbol.

| Structure As Smiles | Measured Target | MBC (µM) |
| --- | --- | --- |
| C[C@H]1COc2c(N3CCN(C)CC3)c(F)cc3c(=O)c(C(=O)NCCCCCCCCCCNC(=O)c4cn5c6c(c(N7CCN(C)CC7)c(F)cc6c4=O)OC[C@@H]5C)cn1c23 | Enterococcus hirae | 62.5 |
| CCCCCCCCCCCC(=O)N1CCN(c2cc3c(cc2F)c(=O)c(C(=O)O)cn3C2CC2)CC1 | Enterococcus hirae | 7.8 |
| O=C(O)c1cn(C2CC2)c2cc(N3CCN(C(=O)CCCCCCCCCCCCCCCCC(=O)N4CCN(c5cc6c(cc5F)c(=O)c(C(=O)O)cn6C5CC5)CC4)CC3)c(F)cc2c1=O | Enterococcus hirae | 500 |

Just so you know, measured MBC for `CCCCCCCCCCCCOC(=O)N1CCN(c2cc3c(cc2F)c(=O)c(C(=O)O)cn3C2CC2)CC1` came out at 500

Per the records, this molecule ( `CCCCNC(=O)c1cn2c3c(c(N4CCN(C)CC4)c(F)cc3c1=O)OC[C@@H]2C` ) has MBC equal to 250

Lab note: `CCCCCCCCCCCCCC(=O)OCC(=O)N1CCN(c2cc3c(cc2F)c(=O)c(C(=O)O)cn3C2CC2)CC1` gave MBC of 31.2

The measured MBC associated with `CCCCCCCCCCC(=O)OCC(=O)N1CCN(c2cc3c(cc2F)c(=O)c(C(=O)O)cn3C2CC2)CC1` reads 1.9

###

System: Staphylococcus aureus
Procedure Summary: Antimicrobial activity against Staphylococcus aureus CIP 4.83 after 18 to 24 hrs by broth microdilution method
Format: functional
Endpoint Label: MBC

Please review the entries below; each comes with its answer.
| Structure As Smiles | Measured Target | MBC |
| --- | --- | --- |
| CC(C)(C)C(=O)N1CCN(c2cc3c(cc2F)c(=O)c(C(=O)O)cn3C2CC2)CC1 | Staphylococcus aureus | ≤ 0.97 µM |
| O=C(CCCCCCCCCCCCCCC(=O)OCN1CCN(c2cc3c(cc2F)c(=O)c(C(=O)O)cn3C2CC2)CC1)OCN1CCN(c2cc3c(cc2F)c(=O)c(C(=O)O)cn3C2CC2)CC1 | Staphylococcus aureus | ≤ 0.97 µM |
| O=C(O)c1cn(C2CC2)c2cc(N3CCN(C(=O)CCCCCCCCCCC(=O)N4CCN(c5cc6c(cc5F)c(=O)c(C(=O)O)cn6C5CC5)CC4)CC3)c(F)cc2c1=O | Staphylococcus aureus | ≤ 0.97 µM |

Now for a further compound.
Note to self: MBC recorded for `CCCCCCCCC(=O)N1CCN(c2cc3c(cc2F)c(=O)c(C(=O)O)cn3C2CC2)CC1` was ≤ 0.03 µM

###

Tested on: Escherichia coli
Procedure Summary: Antimicrobial activity against Escherichia coli CIP 53126 after 18 to 24 hrs by broth microdilution method
Format: functional
Endpoint Label: MBC (µM)
Record the value in µM, omitting the unit from your answer.

| Structure As Smiles | Measurement Units | MBC |
| --- | --- | --- |
| O=C(O)c1cn(C2CC2)c2cc(N3CCN(C(=O)CCCCCCCCC(=O)N4CCN(c5cc6c(cc5F)c(=O)c(C(=O)O)cn6C5CC5)CC4)CC3)c(F)cc2c1=O | µM | 250 |

Sample `CCCCCCCCC(=O)N1CCN(c2cc3c(cc2F)c(=O)c(C(=O)O)cn3C2CC2)CC1` ; MBC observed: 500

Lab note: `CC(=O)OCC(=O)N1CCN(c2cc3c(cc2F)c(=O)c(C(=O)O)cn3C2CC2)CC1` gave MBC of 15.6

Entry `CCCCCCCCOC(=O)N1CCN(c2cc3c(cc2F)c(=O)c(C(=O)O)cn3C2CC2)CC1` — recorded MBC = 500

Notebook: `CCCCOC(=O)N1CCN(c2cc3c(cc2F)c(=O)c(C(=O)O)cn3C2CC2)CC1` , MBC read as 31.2

For reference, reported MBC for `CCCCCCCCCCOC(=O)N1CCN(c2cc3c(cc2F)c(=O)c(C(=O)O)cn3C2CC2)CC1` stands at 500

Value of measured MBC for the entry `O=C(CCCCCCCCCCCCCCC(=O)OCN1CCN(c2cc3c(cc2F)c(=O)c(C(=O)O)cn3C2CC2)CC1)OCN1CCN(c2cc3c(cc2F)c(=O)c(C(=O)O)cn3C2CC2)CC1` : 15.6
